- Test system: KURAMOCHI
- testSummary: drug sensitivity score (DSS2) on cancer cell count; higher = more sensitive; extreme values may be limits of the assay
- conditionLabel: co-cultured fibroblast: BJHTERT; 72 h
Decision: drug sensitivity score compared against 1 DSS; not below it gives rule met, below it gives rule not met.

>>> assignedclass("O=S(=O)(c1cccc2c(O)nccc12)N1CCCNCC1 [Hydroxyfasudil]")
"rule not met"
>>> assignedclass("OC[C@H]1O[C@@H](n2cnc3c2N=CNC[C@H]3O)C[C@@H]1O")
"rule not met"
>>> assignedclass("COCCNCc1ccc(-c2cc3nccc(Oc4ccc(NC(=S)NC(=O)Cc5ccc(F)cc5)cc4F)c3s2)nc1")
"rule met"
>>> assignedclass("O=C(NOC[C@H](O)CO)c1ccc(F)c(F)c1Nc1ccc(I)cc1F")
"rule met"
>>> assignedclass("CC1CCC(n2c3cnccc3c3cnc(Nc4ccc5c(n4)CCN(C(=O)CO)C5)nc32)CC1 (stereo not drawn)")
"rule not met"
>>> assignedclass("CC(C)C(=O)Nc1ccc([N+](=O)[O-])c(C(F)(F)F)c1 [Flutamide]")
"rule not met"
>>> assignedclass("O=c1sn(-c2cccc3ccccc23)c(=O)n1Cc1ccccc1")
"rule not met"
>>> assignedclass("CCS(=O)(=O)N1CCN(c2ccc(Nc3ncc(C(N)=O)c(NC4CC4)n3)cc2)CC1")
"rule not met"
>>> assignedclass("CO[C@@]12[C@H](COC(N)=O)C3=C(C(=O)C(C)=C(N)C3=O)N1C[C@@H]1N[C@@H]12")
"rule not met"
>>> assignedclass("CC[C@]1(O)C[C@@H]2CN(CCc3c([nH]c4ccccc34)[C@@](C(=O)OC)(c3cc4c(cc3OC)N(C)[C@H]3[C@@](O)(C(=O)OC)[C@H](OC(C)=O)[C@]5(CC)C=CCN6CC[C@]43[C@@H]65)C2)C1")
"rule met"

Query block: Could you verify whether the entry `CCc1cc2c(cc1N1CCC(N3CCOCC3)CC1)C(C)(C)c1[nH]c3cc(C#N)ccc3c1C2=O` shows drug sensitivity score of no less than 1 DSS?
Result block: rule not met

Query block: Determine whether this molecule has drug sensitivity score no lower than 1 DSS: `CC[C@]12C=CCN3CC[C@@]4(c5cc([C@@]6(C(=O)OC)C[C@@H]7C[C@@H](C(C)(F)F)CN(Cc8c6[nH]c6ccccc86)C7)c(OC)cc5N(C)[C@H]4[C@@](O)(C(=O)OC)[C@@H]1OC(C)=O)[C@@H]32`
Result block: rule met

Query block: Could you tell me if the measured drug sensitivity score of Nc1cccc2c1CN(C1CCC(=O)NC1=O)C2=O (stereo not drawn) [Lenalidomide] reaches 1 DSS or more?
Result block: rule not met

Query block: In plain terms: is recorded drug sensitivity score at least 1 DSS for `COc1cc2c(N3CCN(C(=O)Nc4ccc(OC(C)C)cc4)CC3)ncnc2cc1OCCCN1CCCCC1` ?
Result block: rule not met

Query block: Check if drug sensitivity score >= 1 DSS (inclusive). Item: `Cn1cnc2c(F)c(Nc3ccc(Br)cc3F)c(C(=O)NOCCO)cc21`
Result block: rule met

* * *

- Test system: KURAMOCHI
- testSummary: drug sensitivity score (DSS2) on cancer cell count; higher = more sensitive; extreme values may be limits of the assay
- conditionLabel: co-cultured fibroblast: WI38; 72 h
measurementLabel: drug sensitivity score (DSS)
Quick note: give the figure in DSS, leave out the unit.

Worked examples follow.
>>> reportedvalue("CC(=O)[C@]1(O)Cc2c(O)c3c(c(O)c2[C@@H](O[C@H]2C[C@H](N)[C@H](O)[C@H](C)O2)C1)C(=O)c1ccccc1C3=O")
14.4
>>> reportedvalue("Nc1nc(Cl)nc2c1ncn2[C@H]1C[C@H](O)[C@@H](CO)O1")
6.7
>>> reportedvalue("CCS(=O)(=O)N1CC(CC#N)(n2cc(-c3ncnc4[nH]ccc34)cn2)C1")
0
>>> reportedvalue("CN(C)C(=O)c1cc2cnc(Nc3ccc(N4CCNCC4)cn3)nc2n1C1CCCC1")
3.9
>>> reportedvalue("C[C@@]1(C(=O)Nc2ccc(F)nc2)CCCN1c1nc(Nc2cc(C3CC3)n[nH]2)c2cccn2n1")
5.5

Query block: Please indicate drug sensitivity score recorded for `Cc1cc(Nc2cc(N3CCN(C)CC3)nc(/C=C/c3ccccc3)n2)n[nH]1`
Result block: 8.4

Query block: Please list drug sensitivity score recorded for the compound `Cc1ccc(NC(=O)c2ccc(CN3CC[C@H](N(C)C)C3)c(C(F)(F)F)c2)cc1Nc1nccc(-c2cncnc2)n1`
Result block: 0

Query block: Please supply the value of reported drug sensitivity score for the item `COc1ccc(-c2ccc3c(N4CCOC[C@@H]4C)nc(N4CCOC[C@@H]4C)nc3n2)cc1CO`
Result block: 18.1

* * *

Reported drug sensitivity score values are given for each entry in this list.
- Tested on: OVCAR8
- testSummary: drug sensitivity score (DSS2) on cancer cell count; higher = more sensitive; extreme values may be limits of the assay
- conditionLabel: co-cultured fibroblast: BJHTERT; 72 h
Give a bare numeral; the unit DSS is implied.

Known drug sensitivity score results, listed for orientation:
>>> reportedvalue("CS(=O)(=O)N1CCN(Cc2cc3nc(-c4cccc5[nH]ncc45)nc(N4CCOCC4)c3s2)CC1")
6.7
>>> reportedvalue("CC/C(=C(\\c1ccccc1)c1ccc(OCCN(C)C)cc1)c1ccccc1")
3.3
>>> reportedvalue("Cn1nnc2c(C(N)=O)ncn2c1=O [Temozolomide]")
0
>>> reportedvalue("CC(C)(C)c1cnc(CSc2cnc(NC(=O)C3CCNCC3)s2)o1")
28.3

Turning now to a further compound:
Query block: Tell us which drug sensitivity score value is on record for `C=CCn1c(=O)c2cnc(Nc3ccc(N4CCN(C)CC4)cc3)nc2n1-c1cccc(C(C)(C)O)n1`
Result block: 21

* * *

- System: OVCAR8
- testSummary: drug sensitivity score (DSS2) on cancer cell count; higher = more sensitive; extreme values may be limits of the assay
- conditionLabel: co-cultured fibroblast: BJHTERT; 72 h
measurementLabel: drug sensitivity score (DSS)
Give just the number in DSS; leave the unit off.

>>> reportedvalue("CC1=C2C[C@H]3[C@@H](CC[C@@H]4C[C@H](NS(C)(=O)=O)CC[C@@]43C)[C@@H]2CC[C@@]2(C1)O[C@@H]1C[C@H](C)CN[C@H]1[C@H]2C")
0
>>> reportedvalue("Cc1noc2c1-c1ccccc1C(c1ccc(Cl)cc1)=N[C@H]2CC(N)=O")
10.9

Now for a further compound.
Query block: State its drug sensitivity score: COc1cc(CCc2cc(NC(=O)c3ccc(N4CC(C)NC(C)C4)cc3)n[nH]2)cc(OC)c1 (stereo not drawn)
Result block: 0

* * *

- System: OVCAR8
- testSummary: drug sensitivity score (DSS2) on cancer cell count; higher = more sensitive; extreme values may be limits of the assay
- conditionLabel: co-cultured fibroblast: BJHTERT; 72 h
Returns MET if the recorded drug sensitivity score is greater than or equal to 2 DSS, and NOT MET otherwise.

Would you please look over these solved cases?
>>> assignedclass("OC[C@H]1O[C@@H](n2cnc3c2N=CNC[C@H]3O)C[C@@H]1O [Pentostatin]")
"NOT MET"
>>> assignedclass("O=C(NC[C@H](O)CN1CCc2ccccc2C1)c1cc(NC2COC2)ncn1")
"NOT MET"
>>> assignedclass("CC(C)C[C@H](NC(=O)CNC(=O)c1cc(Cl)ccc1Cl)B(O)O [Ixazomib]")
"NOT MET"
>>> assignedclass("Clc1ccccc1C(c1ccccc1)(c1ccccc1)n1cccn1 [TRAM-34]")
"NOT MET"
>>> assignedclass("Cc1cc([C@@H](C)Nc2ccccc2C(=O)O)c2nc(N3CCOCC3)cc(=O)n2c1 [AZD-6482]")
"NOT MET"

Query block: Is the recorded value of drug sensitivity score equal to or greater than 2 DSS for this molecule? CC(C)n1cnc2c(NCCc3ccc(O)cc3)nc(-c3csc4ccccc34)nc21 [StemRegenin 1]
Result block: MET

Query block: Does the reported drug sensitivity score for O=C(Nc1cccc(NC(=O)c2cccc(O)c2O)c1)c1cccc(O)c1O [MST-312] fall at or above the 2 DSS mark?
Result block: MET

Query block: Identify whether the reported drug sensitivity score of the following molecule is 2 DSS or greater: Cc1ccc(C(=O)Nc2ccc(CN3CCN(C)CC3)c(C(F)(F)F)c2)cc1C#Cc1cnc2cccnn12 [Ponatinib]
Result block: MET

Query block: Answer whether drug sensitivity score of C=CC(=O)Nc1cc(Nc2nccc(-c3cn(C)c4ccccc34)n2)c(OC)cc1N(C)CCN(C)C [Osimertinib] is greater than or equal to 2 DSS.
Result block: MET

Query block: Exam item: decide whether the reported drug sensitivity score for CN1CCC(COc2cnc(-c3cccc(Cn4nc(-c5cccc(C#N)c5)ccc4=O)c3)nc2)CC1 [Tepotinib] is at least 2 DSS.
Result block: NOT MET

Query block: Hi team, for `NC[C@@](O)(c1ccc(Cl)cc1)c1ccc(-c2cn[nH]c2)cc1` , is the recorded drug sensitivity score at or above 2 DSS?
Result block: MET

Query block: Assess whether reported drug sensitivity score for O=C(O)CC1CC(c2ccccc2)=NO1 (stereo not given) [VGX-1027] sits at 2 DSS or higher.
Result block: NOT MET

Query block: Check if drug sensitivity score >= 2 DSS (inclusive). Item: CNC(=O)c1ccccc1Nc1cc(Nc2ccc(N3CCOCC3)cc2OC)ncc1C(F)(F)F [VS-4718]
Result block: MET

Query block: Hi, just wondering whether O=C(O)C(=O)O.[NH-][C@@H]1CCCC[C@H]1[NH-].[Pt+2] [Oxaliplatin] shows drug sensitivity score of 2 DSS or higher.
Result block: MET

Query block: Is drug sensitivity score at least 2 DSS? Consider O=C(c1ccc(C(=O)N2CCC(N3CCCC3)CC2)c(Nc2ccccc2)c1)N1CCC(N2CCCC2)CC1 [UNC1215]
Result block: NOT MET
